Entries and their solubility at 2 h values follow.
Assay: Solubility in FaSSIF
Details: 23 °C, pH 6.5, fassif, thermodynamic from solid
Hi! Could you send only the number? It should be in µg/mL, unit omitted.

# example entries with known answers
- STRUCTURE: "COC(=O)N[C@H](C(=O)N[C@@H](Cc1ccc(C#Cc2cnc(N3CC4CCC(C3)N4C3COC3)nc2)cc1)[C@H](CN(Cc1c(F)cc(-c2ccn(C(F)F)n2)cc1F)NC(=O)[C@@H](NC(=O)OC)C(C)(C)C(F)(F)F)OC(=O)OCOC(=O)CC(C)(C)c1c(CC(=O)N2CC[C@H](C(=O)O)C2)cc(C)cc1OP(=O)(O)O)C(C)(C)C(F)(F)F"
  UNIT ABBREVIATION: "µg/mL"
  solubility at 2 h: 4170
- STRUCTURE: "COC(=O)N[C@H](C(=O)N[C@@H](Cc1ccc(C#Cc2cnc(N3CC4CCC(C3)N4C3COC3)nc2)cc1)[C@H](CN(Cc1c(F)cc(-c2ccn(C(F)F)n2)cc1F)NC(=O)[C@@H](NC(=O)OC)C(C)(C)C(F)(F)F)OC(=O)CC(C)(C)c1c(CC(=O)N[C@@H](CCC(=O)O)C(=O)O)cccc1OP(=O)(O)O)C(C)(C)C(F)(F)F"
  UNIT ABBREVIATION: "µg/mL"
  solubility at 2 h: 3710

Continue with the compound presented below.
Form field solubility at 2 h, entry COC(=O)N[C@H](C(=O)N[C@@H](Cc1ccc(C#Cc2cnc(N3CC4CCC(C3)N4C3COC3)nc2)cc1)[C@H](CN(Cc1c(F)cc(-c2ccn(C(F)F)n2)cc1F)NC(=O)[C@@H](NC(=O)OC)C(C)(C)C(F)(F)F)OC(=O)CC(C)(C)c1c(CC(=O)N2C[C@H](O)C[C@H]2C(=O)O)cc(C)cc1OP(=O)(O)O)C(C)(C)C(F)(F)F : 4460

Values compiled from patent US20250051375A1.
